# credit: paper PMC7571175

Measured pKi values are reported for all entries that follow.
- assay target: leucine aminopeptidase from porcine kidney (SsLAP) (Sus scrofa)
- Construct: Leucine aminopeptidase from porcine kidney (SsLAP) [26] and barley seeds (HvLAP) [21] were isolated and purified; from tissue; host or cells: porcine kidney
- Sequence (P28839 1-519): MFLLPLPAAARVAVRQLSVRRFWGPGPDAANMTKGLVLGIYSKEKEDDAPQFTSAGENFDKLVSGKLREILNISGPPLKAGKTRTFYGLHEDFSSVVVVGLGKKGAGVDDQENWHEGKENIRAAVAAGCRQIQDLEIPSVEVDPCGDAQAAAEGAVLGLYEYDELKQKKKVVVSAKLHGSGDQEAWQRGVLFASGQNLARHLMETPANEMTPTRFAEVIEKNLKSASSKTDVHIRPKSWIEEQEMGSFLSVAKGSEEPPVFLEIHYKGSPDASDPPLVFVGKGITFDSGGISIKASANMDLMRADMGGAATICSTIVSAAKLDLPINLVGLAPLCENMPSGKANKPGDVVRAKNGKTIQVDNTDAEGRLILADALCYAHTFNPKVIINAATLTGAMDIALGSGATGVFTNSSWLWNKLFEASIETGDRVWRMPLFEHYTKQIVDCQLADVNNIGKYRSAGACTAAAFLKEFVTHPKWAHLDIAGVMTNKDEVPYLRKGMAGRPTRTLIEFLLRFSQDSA
- test protocol: Inhibition of porcine kidney leucine aminopeptidase (enzyme kinetics)
- Type: biochemical
- reported conditions: porcine kidney LAP; compounds assayed as racemic mixtures
pKi: −log10 of the molar value.
observed property: pKi

1. NC(CCc1ccccc1)P(=O)(O)CN(CC(=O)O)Cc1ccc([N+](=O)[O-])cc1 (centres unmarked)
4.28
2. NC(CCc1ccccc1)P(=O)(O)CNCC(=O)O (centres unmarked)
4.54
3. NC(CCc1ccccc1)P(=O)(O)CN(CC(=O)O)Cc1ccc(C(=O)O)cc1 (centres unmarked)
4.57
4. NC(CCc1ccccc1)P(=O)(O)CN(CC(=O)O)Cc1ccc(Br)cc1 (centres unmarked)
3.77
5. NC(CCc1ccccc1)P(=O)(O)CN(CC(=O)O)Cc1ccc(Cl)cc1Cl (centres unmarked)
3.97

---

- assay target: microsomal alanyl aminopeptidase from porcine kidney (SsAPN) (Sus scrofa, UniProt P15145)
- Construct: Microsomal alanyl aminopeptidase from porcine kidney (SsAPN) was purchased from Sigma-Aldrich; purchased Sigma-Aldrich (Poznań, Poland); host or cells: porcine kidney
- Sequence (P15145 whole entry): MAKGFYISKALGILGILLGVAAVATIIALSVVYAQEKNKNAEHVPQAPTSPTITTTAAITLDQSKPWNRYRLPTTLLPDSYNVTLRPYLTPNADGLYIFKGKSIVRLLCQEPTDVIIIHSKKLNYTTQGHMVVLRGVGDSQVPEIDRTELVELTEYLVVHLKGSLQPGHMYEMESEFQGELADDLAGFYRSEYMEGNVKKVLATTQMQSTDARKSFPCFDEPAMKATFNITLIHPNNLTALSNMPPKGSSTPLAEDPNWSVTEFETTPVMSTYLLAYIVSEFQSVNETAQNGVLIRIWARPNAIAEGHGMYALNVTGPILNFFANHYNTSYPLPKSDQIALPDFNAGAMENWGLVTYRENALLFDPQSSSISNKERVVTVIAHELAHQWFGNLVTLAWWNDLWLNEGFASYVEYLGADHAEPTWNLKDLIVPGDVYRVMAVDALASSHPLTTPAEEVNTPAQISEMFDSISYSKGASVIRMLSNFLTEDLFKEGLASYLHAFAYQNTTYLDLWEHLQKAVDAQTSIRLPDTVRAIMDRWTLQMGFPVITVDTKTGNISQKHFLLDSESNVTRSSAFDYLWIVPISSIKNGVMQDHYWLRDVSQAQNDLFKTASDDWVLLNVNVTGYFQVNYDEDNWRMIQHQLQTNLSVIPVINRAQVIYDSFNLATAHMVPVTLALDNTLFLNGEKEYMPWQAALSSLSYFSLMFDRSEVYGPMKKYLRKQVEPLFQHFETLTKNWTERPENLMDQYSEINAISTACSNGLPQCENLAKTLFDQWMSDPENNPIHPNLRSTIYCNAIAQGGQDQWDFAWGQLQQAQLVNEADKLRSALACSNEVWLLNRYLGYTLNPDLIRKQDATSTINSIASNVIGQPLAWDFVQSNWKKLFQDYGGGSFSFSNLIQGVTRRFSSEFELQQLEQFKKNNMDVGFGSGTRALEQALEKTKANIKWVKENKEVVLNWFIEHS
- test protocol: Inhibition of porcine kidney alanyl aminopeptidase (enzyme kinetics)
- Type: biochemical
- reported conditions: porcine APN; compounds assayed as racemic mixtures
Here the recorded Ki is given for each entry.
observed property: Ki (µM)

1) NC(CCc1ccccc1)P(=O)(O)CN(CC(=O)O)Cc1ccc(Cl)cc1Cl (centres unmarked)
7.7
2) NC(CCc1ccccc1)P(=O)(O)CN(CC(=O)O)Cc1ccc([N+](=O)[O-])cc1 (centres unmarked)
17
3) NC(CCc1ccccc1)P(=O)(O)CNCC(=O)O (centres unmarked)
63
4) NC(CCc1ccccc1)P(=O)(O)CN(CC(=O)O)Cc1ccc(Br)cc1 (centres unmarked)
5.8
5) NC(CCc1ccccc1)P(=O)(O)CN(CC(=O)O)Cc1ccc(C(=O)O)cc1 (centres unmarked)
34

---

- assay target: recombinant human alanine aminopeptidase (HsAPN) (Homo sapiens, UniProt P15144)
- Construct: purchased R&D System (Minneapolis, MN, USA)
- Sequence (P15144 whole entry): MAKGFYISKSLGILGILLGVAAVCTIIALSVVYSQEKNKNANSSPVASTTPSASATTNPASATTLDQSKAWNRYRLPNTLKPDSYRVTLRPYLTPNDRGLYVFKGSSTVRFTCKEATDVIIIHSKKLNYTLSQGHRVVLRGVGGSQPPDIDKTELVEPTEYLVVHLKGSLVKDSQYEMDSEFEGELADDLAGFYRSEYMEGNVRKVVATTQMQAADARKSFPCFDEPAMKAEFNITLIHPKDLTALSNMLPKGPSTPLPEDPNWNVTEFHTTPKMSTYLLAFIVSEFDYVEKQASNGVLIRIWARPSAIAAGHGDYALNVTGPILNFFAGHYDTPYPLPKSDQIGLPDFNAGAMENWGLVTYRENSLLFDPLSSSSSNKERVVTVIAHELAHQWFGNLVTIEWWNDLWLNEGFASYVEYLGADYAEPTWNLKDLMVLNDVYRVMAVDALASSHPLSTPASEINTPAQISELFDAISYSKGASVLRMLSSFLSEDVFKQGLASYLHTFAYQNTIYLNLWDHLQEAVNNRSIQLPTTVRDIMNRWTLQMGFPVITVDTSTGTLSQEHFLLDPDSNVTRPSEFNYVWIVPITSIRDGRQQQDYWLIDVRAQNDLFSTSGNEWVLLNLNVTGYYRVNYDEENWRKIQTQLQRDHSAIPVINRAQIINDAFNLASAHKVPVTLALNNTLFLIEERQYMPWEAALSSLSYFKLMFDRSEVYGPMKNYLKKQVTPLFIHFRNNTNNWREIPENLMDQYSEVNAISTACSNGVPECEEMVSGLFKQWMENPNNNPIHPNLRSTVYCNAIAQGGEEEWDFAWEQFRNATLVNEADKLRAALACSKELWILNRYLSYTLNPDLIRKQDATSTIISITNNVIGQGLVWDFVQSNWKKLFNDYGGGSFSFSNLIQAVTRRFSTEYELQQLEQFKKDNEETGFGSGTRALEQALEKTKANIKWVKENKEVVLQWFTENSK
- test protocol: Inhibition of recombinant human alanine aminopeptidase (enzyme kinetics)
- Type: biochemical
- reported conditions: human APN, value of the abstract; read-out: Ki human alanyl aminopeptidase
pKi: −log10 of the molar value.
observed property: pKi

1. NC(CCc1ccccc1)P(=O)(O)CN(CC(=O)O)Cc1ccc(Cl)cc1Cl (stereo not shown)
6.99

---

Consider the following compounds and their measured Ki readings.
- assay target: recombinant human alanine aminopeptidase (HsAPN) (Homo sapiens, UniProt P15144)
- Construct: purchased R&D System (Minneapolis, MN, USA)
- test protocol: Inhibition of recombinant human alanine aminopeptidase (enzyme kinetics)
- Assay type: biochemical
- reported conditions: human APN; compounds assayed as racemic mixtures; read-out: Ki HsAPN
observed property: Ki (µM)

1. NC(CCc1ccccc1)P(=O)(O)CN(CC(=O)O)Cc1ccc(C(=O)O)cc1 (stereo not shown)
1.4
2. NC(CCc1ccccc1)P(=O)(O)CN(CC(=O)O)Cc1ccc(Br)cc1 (stereo not shown)
0.13
3. NC(CCc1ccccc1)P(=O)(O)CN(CC(=O)O)Cc1ccc(Cl)cc1Cl (stereo not shown)
0.1
4. NC(CCc1ccccc1)P(=O)(O)CN(CC(=O)O)Cc1ccc([N+](=O)[O-])cc1 (stereo not shown)
0.24
